# System: SOCE in DG75 cells (B lymphocytes)
# test: SOCE inhibition in DG75 cells
# Format: cell-based
# cond: DG75 cells (B lymphocytes), FIG. 3B

recordSmiles | Ki
NCCOB(c1ccc(-c2ccccc2)cc1)c1ccc(-c2ccccc2)cc1 | 32 nM

---

Below: a set of entries, each annotated with reported Ki.
# Test system: SOCE of Jurkat T cells
# test: SOCE inhibition in thapsigargin-treated Jurkat cells (Indo-1 cytosolic calcium)
# Type: cell-based
# cond: SOCE, Jurkat cells, compound added 30 s before reintroduction of calcium
endpointLabel: Ki

compound | endpointLabel | recordedValue
Cc1cccc(B(OCCN)c2cccc(C)c2)c1 | Ki | 2.1 µM
Cc1ccc(B(OCCN)c2ccc(C)c(C)c2)cc1C | Ki | 0.751 µM
NCCOB(c1ccc(Cl)cc1)c1ccc(Cl)cc1 | Ki | 1.84 µM
NCCOB(c1ccc(-c2ccccc2)cc1)c1ccc(-c2ccccc2)cc1 | Ki | 0.075 µM
COc1ccc(B(OCCN)c2ccc(OC)cc2)cc1 [Compound P2] | Ki | 3.5 µM
Cc1ccc(B(OCCN)c2ccc(C)cc2)cc1 | Ki | 3.5 µM
Cc1ccc(B(OCCN)c2ccc(C)c(Cl)c2)cc1Cl | Ki | 0.294 µM
NCCOB(c1ccc(F)cc1)c1ccc(F)cc1 | Ki | 5.4 µM
CC(C)(C)c1ccc(B(OCCN)c2ccc(C(C)(C)C)cc2)cc1 [Compound P9] | Ki | 0.641 µM
CC(C)(C)c1ccc(B(OCCN)c2ccc(C(C)(C)C)cc2)cc1 [Compound P8] | Ki | 0.35 µM
COc1cccc(B(OCCN)c2cccc(OC)c2)c1 | Ki | 75 µM
